FYI, the data here is from paper PMC10424182.

Biological target: PSP brain homogenates (4R-tau aggregates) (Homo sapiens)
Sequence (P10636 1-441 isoform P10636-8): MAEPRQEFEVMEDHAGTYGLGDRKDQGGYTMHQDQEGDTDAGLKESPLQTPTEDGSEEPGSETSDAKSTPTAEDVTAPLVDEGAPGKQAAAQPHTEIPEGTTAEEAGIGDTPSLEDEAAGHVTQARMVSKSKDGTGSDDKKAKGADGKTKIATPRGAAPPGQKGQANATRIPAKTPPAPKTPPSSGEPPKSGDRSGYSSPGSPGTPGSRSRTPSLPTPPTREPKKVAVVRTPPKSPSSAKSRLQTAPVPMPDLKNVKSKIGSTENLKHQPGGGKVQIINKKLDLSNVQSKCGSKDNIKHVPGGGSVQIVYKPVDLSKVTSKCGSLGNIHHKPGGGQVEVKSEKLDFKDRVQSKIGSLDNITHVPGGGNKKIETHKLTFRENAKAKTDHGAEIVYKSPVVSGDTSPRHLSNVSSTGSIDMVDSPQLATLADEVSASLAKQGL
Test: Competition
Type: binding
pKi: −log10 of the molar value.
measure_name: pKi

Oc1cccc2sc(-c3cnc(N4CCC(O)CC4)nc3)cc12 [Compound 6]    7.66
CNc1ccc(/C=C/C=C/c2nc3ccc(OCC(O)CF)cc3s2)cn1 (stereo not drawn) [PM-PBB3, reference compound]    7.74
